# tested-on: UniProtKB P35372
# assay-details: μ-opioid receptor [35S]GTPγS functional assay, U-2 OS cells
# Format: biochemical
# cond: U-2 OS cells; relative to DAMGO
# Procedure: μ-Opioid Receptor Functional Assay Procedures: [^35S]GTPγS functional assays were conducted using freshly thawed μ-receptor membranes prepared in-house from a cell line expressing recombinant μ opioid receptor in a HEK-293, CHO, or U-2 OS cell background or purchased from a commercial source (Perkin Elmer, Shelton, Conn.). […] Data were analyzed using the sigmoidal dose-response curve fitting functions in GraphPad PRISM v. […]
Emax listing for selected molecules.
Hi! Could you send only the number? It should be in %, unit omitted.

// below: answered molecules
smiles-str	tested-on	unit-of-measure	Emax
CS(=O)(=O)c1cc2c([nH]c1=O)C[C@]13CCN(CC4CC4)[C@H](Cc4ccc(O)cc41)[C@]3(O)C2	UniProtKB P35372	%	2
O=c1[nH]c2c(cc1S(=O)(=O)c1ccccc1)C[C@@]1(O)[C@H]3Cc4ccc(O)cc4[C@@]1(CCN3CC1CC1)C2	UniProtKB P35372	%	2
CN1CC[C@]23Cc4[nH]c(=O)c(S(=O)(=O)c5ccccc5)cc4C[C@@]2(O)[C@H]1Cc1ccc(O)cc13	UniProtKB P35372	%	61.7

Note: attention shifts to another entry.
Item CN1CC[C@]23Cc4[nH]c(=O)c(S(C)(=O)=O)cc4C[C@@]2(O)[C@H]1Cc1ccc(O)cc13 has what recorded Emax?
68
